These measurements were taken from PubChem BioAssay (NCI).

# Test system: CAKI-1 renal
# TEST SUMMARY: NCI-60 one-dose screen, 48 h (100 = growth as untreated, 0 = no growth, -100 = all killed)
# MEASUREMENT CONTEXT: 10 µM unless noted
This is part of a sample that, as a whole, favours compounds with a hit. Of some 83,000 tested, about 20% had one in any assay. Where a SMILES comes first, the peptide text is derived from it. [ ]: non-standard residue; d: D form. ξ: configuration not given here. ξD = NC(CC(=O)O)C(=O)O

[
  {
    "MOLECULE": "O=C1C=CC(=O)c2c(O)c(CO)c(CO)c(O)c21",
    "growth (%)": 93.4
  },
  {
    "MOLECULE": "CCNc1nnnn1CC",
    "growth (%)": 99.4
  },
  {
    "MOLECULE": "COc1cc2c(c(OC)c1OC)-c1ccc(NCc3ccccc3)c(=O)cc1[C@@H](NC(C)=O)CC2",
    "growth (%)": 28.8
  },
  {
    "MOLECULE": "NCC(=O)NC(CC(=O)O)C(=O)O (configuration not stated) (H-Gly-[ξD]-OH)",
    "growth (%)": 89.8
  },
  {
    "MOLECULE": "COc1ccc2nc3cc(Cl)ccc3c(NCCCCCN3CCCCC3)c2c1",
    "growth (%)": -50.3
  },
  {
    "MOLECULE": "Cn1c(-c2ccccc2)c(/C=C/C2=[N+](C)c3ccccc3C2(C)C)c2ccccc21",
    "growth (%)": 35.6
  },
  {
    "MOLECULE": "C=C(C(N)=O)C(N)C(=O)O (configuration not stated)",
    "growth (%)": 116
  },
  {
    "MOLECULE": "N#C/C(=N\\Nc1ccc(Cl)cc1)C(=O)C1CC1",
    "growth (%)": 49.1
  },
  {
    "MOLECULE": "O=C(c1ccc(O)c(Br)c1)c1ccc(O)c(Br)c1",
    "growth (%)": 119
  },
  {
    "MOLECULE": "O=C1c2ccccc2Cc2cccc(Cl)c21",
    "growth (%)": 99.1
  },
  {
    "MOLECULE": "Nc1nc(-c2ccccc2)nc(N)c1N=O",
    "growth (%)": 32.4
  },
  {
    "MOLECULE": "O=C(c1ccccc1)N(CCCl)C(=O)N(CCCl)C(=O)c1ccccc1",
    "growth (%)": 97.3
  }
]

====

# Tested on: NCI-H322M lung
# TEST SUMMARY: NCI-60 one-dose screen, 48 h (100 = growth as untreated, 0 = no growth, -100 = all killed)
# MEASUREMENT CONTEXT: 10 µM unless noted
Compounds without any hit were thinned out: in the full panel of roughly 83,000, 20% have a hit.
OUTCOME MEASURE: growth (%)

[
  {
    "COMPOUND": "Cc1c(O)ccc(SC#N)c1C",
    "EXPERIMENTAL SYSTEM": "NCI-H322M lung",
    "MEASURED NUMBER": 117
  },
  {
    "COMPOUND": "CCCCCCC1N=C(N)N=C(N)N1c1cccc(Cl)c1 (stereo not drawn)",
    "EXPERIMENTAL SYSTEM": "NCI-H322M lung",
    "MEASURED NUMBER": 43
  },
  {
    "COMPOUND": "CC(C)c1ccc(Nc2n[nH]c(=S)s2)cc1",
    "EXPERIMENTAL SYSTEM": "NCI-H322M lung",
    "MEASURED NUMBER": 102
  }
]
